system: Clone A human colon cancer cells; assay: In vitro growth inhibition of Clone A cells (MTT, 72 hr); assay type: cell-based; conditions: 72 h, read-out: Clone A IC50
Listing of entries alongside the reported IC50.
// note: answer is a bare numeric in µg/mL

{"MOL_SMILES": "CS(=O)(=O)O.O=C1c2cccc3c2c(cc2ccccc23)C(=O)N1CCCCNCCCN1C(=O)c2cccc3c2c(cc2ccccc23)C1=O", "UNITS_SYMBOL": "µg/mL", "IC50": 0.412}
{"MOL_SMILES": "CS(=O)(=O)O.CS(=O)(=O)O.C[C@H](CNCCNC[C@@H](C)N1C(=O)c2cc([N+](=O)[O-])cc3c2c(cc2ncccc23)C1=O)N1C(=O)c2cccc3cc([N+](=O)[O-])cc(c23)C1=O", "UNITS_SYMBOL": "µg/mL", "IC50": 0.003}

For the next question, use this molecule.
Name the recorded IC50 of the item CS(=O)(=O)O.Cc1cccc2c1cc1c3c(cccc32)C(=O)N(CCCCNCCCN2C(=O)c3cccc4c3c(cc3c(C)cccc34)C2=O)C1=O in your answer. 0.271

---

tested on: Murine leukemia L1210 cells; assay: In vitro growth inhibition of L1210 cells (MTT, 72 hr); type: cell-based; conditions: Mus musculus; L1210 cells, 72 hr, MTT; read-out: L1210 IC50
Threshold 0.01 µg/mL. IC50 below it: rule met. IC50 at it or above: rule not met.

{"MOL_SMILES": "C[C@H](CNCCNC[C@@H](C)N1C(=O)c2cc([N+](=O)[O-])cc3c2c(cc2cccnc23)C1=O)N1C(=O)c2cccc3cc([N+](=O)[O-])cc(c23)C1=O", "ASSAY_SYSTEM": "Murine leukemia L1210 cells", "DISCRETE_LABEL": "rule not met"}
{"MOL_SMILES": "CS(=O)(=O)O.O=C1c2cccc3c2c(cc2cccnc23)C(=O)N1CCCCNCCCN1C(=O)c2cccc3c2c(cc2cccnc23)C1=O", "ASSAY_SYSTEM": "Murine leukemia L1210 cells", "DISCRETE_LABEL": "rule not met"}
{"MOL_SMILES": "CS(=O)(=O)O.O=C1c2cccc3c2c(cc2ncccc23)C(=O)N1CCCCNCCCN1C(=O)c2cccc3c2c(cc2ncccc23)C1=O", "ASSAY_SYSTEM": "Murine leukemia L1210 cells", "DISCRETE_LABEL": "rule met"}
{"MOL_SMILES": "O=C1c2cccc3c2c(cc2cnccc23)C(=O)N1CCCCNCCCN1C(=O)c2cccc3c2c(cc2cnccc23)C1=O", "ASSAY_SYSTEM": "Murine leukemia L1210 cells", "DISCRETE_LABEL": "rule met"}

I'd appreciate it if you could check whether CS(=O)(=O)O.CS(=O)(=O)O.C[C@H](CNCCNC[C@@H](C)N1C(=O)c2cccc3c2c(cc2ccncc23)C1=O)N1C(=O)c2cccc3cc([N+](=O)[O-])cc(c23)C1=O has IC50 smaller than 0.01 µg/mL. rule not met

---

assay: Solubility in water
OBSERVATION_TYPE: solubility (µg/mL)
Write the answer as a number in µg/mL, unit excluded.

Return solubility for the following molecule: CS(=O)(=O)O.O=C1c2cc([N+](=O)[O-])cc3c2c(cc2cccnc23)C(=O)N1CCCNCCN1C(=O)c2cc([N+](=O)[O-])cc3c2c(cc2cccnc23)C1=O [Example 3] 80

Name the recorded solubility of the item CS(=O)(=O)O.Cc1cnc2c(c1)cc1c3c(cc([N+](=O)[O-])cc32)C(=O)N(CCCCNCCCN2C(=O)c3cc([N+](=O)[O-])cc4c3c(cc3cc(C)cnc34)C2=O)C1=O [Example 12] in your answer. 50

Item CS(=O)(=O)O.CS(=O)(=O)O.Cc1cnc2c(c1)cc1c3c(cc([N+](=O)[O-])cc32)C(=O)N([C@H](C)CNCCNC[C@@H](C)N2C(=O)c3cc([N+](=O)[O-])cc4c3c(cc3cc(C)cnc34)C2=O)C1=O [Example 13] : provide solubility 7100

Answer with reported solubility of CS(=O)(=O)O.CS(=O)(=O)O.C[C@@H](CN1C(=O)c2cc([N+](=O)[O-])cc3c2c(cc2cccnc23)C1=O)NCCN[C@@H](C)CN1C(=O)c2cc([N+](=O)[O-])cc3c2c(cc2cccnc23)C1=O [Example 20] 3330

Note down solubility recorded for CS(=O)(=O)O.CS(=O)(=O)O.C[C@H](CNCCNC[C@@H](C)N1C(=O)c2cc([N+](=O)[O-])cc3c2c(cc2cccnc23)C1=O)N1C(=O)c2cc([N+](=O)[O-])cc3c2c(cc2cccnc23)C1=O [Example 8] 4000
